System: CYP1A
Assay: Dermal microsomal CYP1A enzymatic activity (7-ethoxyresorufin-O-deethylase), inhibition or enhancement
Conditions: nude, mouse, skin (dermal) microsomes, pH 7.8, probe 7-ethoxyresorufin, inhibition of dermal CYP1A activity, compound 1 μM
READOUT: inhibition at 10 min, 1 µM

                      smiles_representation  assay_target   val
0  CC1(C)CC[C@]2(C(=O)O)CC[C@]3(C)C(=CC[C@@H]4[C@@]5(C)CC[C@H](O)C(C)(C)[C@@H]5CC[C@]43C)[C@@H]2C1         CYP1A  ~76%

###

Each entry below lists one item and its recorded activity at 10 min, 10 µM value.
Tested on: CYP1A
Experiment: Liver microsomal CYP1A enzymatic activity, inhibition or enhancement
Conditions: nude, mouse, liver microsomes, pH 7.8, probe 7-ethoxyresorufin
READOUT: activity at 10 min, 10 µM

>>> df
                      smiles_representation   val
0                         C=CC(=C)CCC=C(C)C   98%
1         O=c1c(-c2ccc(O)cc2)coc2cc(O)ccc12  112%
2  CC(C)[C@@H](C)/C=C/[C@@H](C)[C@H]1CC[C@H]2C3=CC=C4C[C@@H](O)CC[C@]4(C)[C@H]3CC[C@]12C  104%
3                       O=c1ccc2ccc(O)cc2o1  119%
4                   O=C(O)c1cc(O)c(O)c(O)c1  123%
5  O=c1c(O[C@@H]2O[C@H](CO)[C@@H](O)[C@H](O)[C@H]2O)c(-c2ccc(O)c(O)c2)oc2cc(O)cc(O)c12  104%
6      O=c1c(-c2ccc(O)cc2)coc2cc(O)cc(O)c12  108%
